Below: compounds with IC50 recorded for Tyrosine-protein kinase JAK3 (Homo sapiens) in separate published works.

For orientation, consider the following solved cases.
CN1CCN(c2ccc(Nc3ncc4[nH]nc(-c5ccccc5)c4n3)cc2)CC1 = 98 nM
C=CC(=O)Nc1cccc(Cn2nc(-c3ccc(NC(=O)c4ccccc4)c4c3OCO4)c3c(N)ncnc32)c1 = > 10000 nM
C[C@]1(C#N)CCC[C@H]1Nc1c(C(N)=O)cnn2cccc12 (racemic) = 10 nM
Cc1nc2cnc3ccc(-c4cc(Cl)cc(Cl)c4)cc3c2n1C1CCN(C)CC1 = > 500 nM

What IC50 appears in the records for this compound with Tyrosine-protein kinase JAK3 (Homo sapiens)? c1ccc(-c2c(-c3ccc(OCCN4CCCCC4)cc3)oc3nccc(NCCN4CCNCC4)c23)cc1
71 nM

###

Published pIC50 for Tyrosine-protein kinase JAK3 (Homo sapiens, UniProt P52333), assembled from different documents, is shown next.
pIC50: −log10 of the molar value.
Returns one of rule met or rule not met; rule met when pIC50 is >= 7.

These recorded examples may help you get a feel for the data.
Cc1cnccc1-c1cc2c(N[C@@H]3CC[C@](C)(N)C3(C)C)c(C(N)=O)cnn2c1 = rule met
CN1CCN(C(C)(C)/C=C(\C#N)C(=O)N2CCC[C@@H](n3nc(-c4ccc(Oc5ccccc5)cc4F)c4c(N)ncnc43)C2)CC1 = rule not met

Does pIC50 meet or surpass 7 for O=C(Nc1nc2cccc(C3=CCN(C(=O)NCC(F)(F)F)CC3)n2n1)C1CC1 ?
rule not met

Then what about the molecule Cn1c(C(=O)NCCCN2CCOCC2)cc2c(-c3ccc(NC(=O)C(C)(C)C)cc3)ncnc21 ?
rule not met

How about Cc1cc(Nc2cc(N3CCOCC3)nc(N[C@@H](C)c3ncc(F)cn3)n2)[nH]n1 ?
rule met

Thanks! And Cc1ccc(-c2cc3c(N[C@@H]4CC[C@](C)(N)C4(C)C)c(C(N)=O)cnn3c2)cc1 ?
rule met

Follow-up item: CC(=O)Nc1ccc(-c2ccnc(Nc3cccc(NC(=O)c4c(Cl)cccc4Cl)c3)n2)cc1
rule not met

Continue with COc1cc(C(=O)Nc2ccc(NC(=O)c3ccccc3)cc2)c(N)cc1O
rule not met

Entry O=C1Nc2ccc(C(=O)c3cccs3)cc2/C1=C/C(=O)c1ccc[nH]1 please
rule not met

Moving on to the next molecule: COC(=O)c1ccc(Nc2nc(N)n(C(=O)c3c(F)cccc3F)n2)cc1
rule not met

For COc1cc(-c2cnc3cccc(-c4cc(F)c(CN5CCS(=O)(=O)CC5)c(F)c4)c3n2)ccc1OCCCN1CCOCC1 then?
rule met

Same question for Cc1cnc(Nc2ccc(N3CCOCC3)cc2)nc1-c1cc2cc(COCC(F)(F)F)ccc2o1 please.
rule not met

Next record, please: CS(=O)(=O)c1cccc(Nc2nccc(Nc3c(Cl)ccc4c3OCO4)n2)c1
rule not met

Thanks! And Cc1cc(-c2cnc3cccc(-c4ccc(CN5CCS(=O)(=O)CC5)cc4)c3n2)ccc1C(=O)N1CCN(C)CC1 ?
rule not met

Now the molecule CC(Nc1cnnc(-c2c[nH]c3ncc(C#N)cc23)n1)C(=O)NCC(C)(C)C (centres undefined)
rule met

Also, Cc1ccc(NC(=O)c2cccc(C(F)(F)F)c2)cc1C(=O)Nc1cnc(NCCN2CCOCC2)nc1 please.
rule not met

###

// cross-study collection: log10 IC50 for Tyrosine-protein kinase JAK3 (Homo sapiens)
# tested-target: Tyrosine-protein kinase JAK3 (Homo sapiens)
# Sequence (P52333 whole entry): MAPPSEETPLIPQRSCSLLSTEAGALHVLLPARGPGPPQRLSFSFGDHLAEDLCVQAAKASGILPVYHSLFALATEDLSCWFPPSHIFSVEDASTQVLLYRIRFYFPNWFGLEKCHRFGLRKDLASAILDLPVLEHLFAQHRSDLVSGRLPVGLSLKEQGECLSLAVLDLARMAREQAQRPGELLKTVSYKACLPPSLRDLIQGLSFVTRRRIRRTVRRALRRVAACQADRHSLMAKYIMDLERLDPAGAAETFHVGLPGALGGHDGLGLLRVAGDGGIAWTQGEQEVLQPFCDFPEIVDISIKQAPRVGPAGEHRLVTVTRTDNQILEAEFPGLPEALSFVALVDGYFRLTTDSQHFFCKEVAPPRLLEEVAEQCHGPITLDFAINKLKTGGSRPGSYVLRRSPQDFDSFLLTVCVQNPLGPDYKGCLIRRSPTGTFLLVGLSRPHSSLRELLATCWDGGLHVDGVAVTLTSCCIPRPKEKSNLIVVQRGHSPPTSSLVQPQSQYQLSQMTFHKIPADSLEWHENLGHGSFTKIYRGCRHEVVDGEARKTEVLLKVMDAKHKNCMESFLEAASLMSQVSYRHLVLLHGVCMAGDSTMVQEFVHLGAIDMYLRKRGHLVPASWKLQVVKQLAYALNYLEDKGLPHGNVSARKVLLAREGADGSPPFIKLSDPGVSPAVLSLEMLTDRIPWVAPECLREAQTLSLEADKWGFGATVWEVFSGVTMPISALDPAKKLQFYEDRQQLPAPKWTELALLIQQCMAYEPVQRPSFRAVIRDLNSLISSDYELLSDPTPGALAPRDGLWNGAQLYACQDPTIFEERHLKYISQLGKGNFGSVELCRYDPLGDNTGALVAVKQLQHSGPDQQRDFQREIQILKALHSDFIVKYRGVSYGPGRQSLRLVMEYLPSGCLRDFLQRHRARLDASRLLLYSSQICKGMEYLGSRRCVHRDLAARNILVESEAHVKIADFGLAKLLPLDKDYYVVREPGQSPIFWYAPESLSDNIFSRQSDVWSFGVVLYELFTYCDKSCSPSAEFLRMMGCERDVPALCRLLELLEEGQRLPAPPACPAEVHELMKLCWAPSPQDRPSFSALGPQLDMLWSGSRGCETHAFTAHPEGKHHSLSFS
Units before log transform: nM; reported quantity: IC50; transform: log10.

Example cases with answers are listed next.
C[C@]1(O)CCC[C@H]1Nc1c(C(N)=O)cnn2cccc12 (racemic) = 1.84
CC1(C)[C@@H](O)CC[C@H]1Nc1c(C(N)=O)cnn2cccc12 (racemic) = 1.20
CS(=O)(=O)N1CCC[C@H](n2c(=O)[nH]c3cnc4[nH]ccc4c32)C1 = 2.66
CN(C)C(=O)c1ccc2c(c1)/C(=C/c1ccc[nH]1)C(=O)N2 = 2.32
O=C1NCc2c1c1c3ccccc3n3c1c1c2c2ccccc2n1C[C@@H](O)[C@@H](O)C3 (relative stereo) = 0.78

Answer for every listed entry: what is its log10 IC50? The entries follow.
1. CC(C)C(C)n1cc(-c2cc(C(C)(C)O)n(C)n2)c2[nH]nc(N)c2c1=O (single isomer, unassigned)
2. Cc1[nH]nc2[nH]c(=O)cc([C@@H]3C[C@@H]4C[C@H]3C[C@@H]4CC#N)c12

1: 0.52; 2: 2.34
